# measurement-protocol: Phase 1 study, pharmacokinetics in plasma and urine
# Assay type: in vivo, human
# study-conditions: human, plasma; across subjects and dose groups, oral
readout-name: Tmax

Query: Can you share its Tmax? I mean this molecule: O=c1[nH]nc2c3c(cccc13)N=C(CN1Cc3ccccc3C1)N2
Reply: 0.5 to 4 h

----------
# measurement-protocol: Phase 1 study, pharmacokinetics in plasma and urine
# Type: in vivo, human
# study-conditions: plasma; human subjects, oral; read-out: elimination half-life (converted)
readout-name: half-life

Query: Reported half-life, compound O=c1[nH]nc2c3c(cccc13)N=C(CN1Cc3ccccc3C1)N2 [stenoparib] : ____
Reply: ~8 h

The measurements presented in this section are drawn from patent US20240325396A1.
